# assay-protocol: Pharmacokinetics of AE-PM components and their phase II metabolites in rat plasma after single oral administration (UHPLC-MS/MS, with and without sulfatase hydrolysis)
# assay-setup: rat, plasma, po, 50 g/kg, MRT (0-∞), ANIT group rats; oral AE-PM 50 g/kg; plasma; n = 6
Give satisfied when the value for MRT inf is at least 20 h. Give not satisfied when it is less.

Qu. For this compound, is measured MRT inf 20 h or higher? Cc1cc(O)c2c(c1)C(=O)c1cc(O)cc(O)c1C2=O
Ans. satisfied

Qu. For this compound, is measured MRT inf 20 h or higher? OC[C@H]1O[C@@H](Oc2c(O)cc(O)cc2/C=C/c2ccc(O)cc2)[C@H](O)[C@@H](O)[C@@H]1O
Ans. not satisfied

Qu. For this compound, is measured MRT inf 20 h or higher? O=C1c2cccc(O)c2C(=O)c2c(O)cc(CO)cc21
Ans. satisfied

Qu. For this compound, is measured MRT inf 20 h or higher? Cc1cc(O[C@@H]2O[C@H](CO)[C@@H](O)[C@H](O)[C@H]2O)c2c(c1)C(=O)c1cc(O)cc(O)c1C2=O [E-glu, emodin-8-O-β-D-glucoside]
Ans. not satisfied

Qu. For this compound, is measured MRT inf 20 h or higher? COc1cc(O)c2c(c1)C(=O)c1cc(C)cc(O[C@@H]3O[C@H](CO)[C@@H](O)[C@H](O)[C@H]3O)c1C2=O [P-glu, physcion-8-O-β-D-glucoside]
Ans. not satisfied

Qu. For this compound, is measured MRT inf 20 h or higher? COc1cc(O)c2c(c1)C(=O)c1cc(C)cc(O)c1C2=O
Ans. satisfied

Qu. For this compound, is measured MRT inf 20 h or higher? Oc1cc(O)c2c(c1)O[C@H](c1ccc(O)c(O)c1)[C@@H](O)C2
Ans. satisfied

----------
# assay-protocol: Pharmacokinetics of AE-PM components and their phase II metabolites in rat plasma after single oral administration (UHPLC-MS/MS, with and without sulfatase hydrolysis)
# assay-setup: rat, plasma, po, 50 g/kg, MRT (0-∞), Normal group rats; oral AE-PM 50 g/kg; plasma; n = 6
Could you please report measured MRT inf for the items listed next?
Provide the reading as a plain figure in h.

MRT inf measured on Oc1cc(O)c2c(c1)O[C@H](c1ccc(O)c(O)c1)[C@@H](O)C2 [Catechin, catechin] = 146

MRT inf measured on OC[C@H]1O[C@@H](Oc2c(O)cc(O)cc2/C=C/c2ccc(O)cc2)[C@H](O)[C@@H](O)[C@@H]1O [TSG] = 4.54

MRT inf measured on Cc1cc(O)c2c(c1)C(=O)c1cc(O)cc(O)c1C2=O [Emodin, emodin] = 6.09

MRT inf measured on COc1cc(O)c2c(c1)C(=O)c1cc(C)cc(O[C@@H]3O[C@H](CO)[C@@H](O)[C@H](O)[C@H]3O)c1C2=O [P-glu, physcion-8-O-β-D-glucoside] = 15.9

MRT inf measured on Cc1cc(O[C@@H]2O[C@H](CO)[C@@H](O)[C@H](O)[C@H]2O)c2c(c1)C(=O)c1cc(O)cc(O)c1C2=O [E-glu, emodin-8-O-β-D-glucoside] = 3.88

MRT inf measured on COc1cc(O)c2c(c1)C(=O)c1cc(C)cc(O)c1C2=O [Physcion, physcion] = 26.7

MRT inf measured on O=C1c2cccc(O)c2C(=O)c2c(O)cc(CO)cc21 [Aloe-emodin, aloe-emodin] = 14

----------
# assay-protocol: Pharmacokinetics of AE-PM components and their phase II metabolites in rat plasma after single oral administration (UHPLC-MS/MS, with and without sulfatase hydrolysis)
# assay-setup: rat, plasma, po, 50 g/kg, Vz/F, ANIT group rats; oral AE-PM 50 g/kg; plasma; n = 6
observation-type: Vd/F (L/kg)
Provide the reading as a plain figure in L/kg.

Vd/F measured on OC[C@H]1O[C@@H](Oc2c(O)cc(O)cc2/C=C/c2ccc(O)cc2)[C@H](O)[C@@H](O)[C@@H]1O = 0.221

Vd/F measured on Cc1cc(O)c2c(c1)C(=O)c1cc(O)cc(O)c1C2=O = 75.5

Vd/F measured on COc1cc(O)c2c(c1)C(=O)c1cc(C)cc(O[C@@H]3O[C@H](CO)[C@@H](O)[C@H](O)[C@H]3O)c1C2=O [P-glu, physcion-8-O-β-D-glucoside] = 13.2

----------
# assay-protocol: in vivo
# assay-setup: rat, po, 50 g/kg, MRT (0-∞), CCl4 group rats, oral AE-PM 50 g/kg, plasma, n = 6
observation-type: MRT inf

MRT inf measured on O=C(O)c1cc(O)c(O)c(O)c1 = 3.06 h

----------
# assay-protocol: Pharmacokinetics of AE-PM components and their phase II metabolites in rat plasma after single oral administration (UHPLC-MS/MS, with and without sulfatase hydrolysis)
# assay-setup: rat, plasma, po, 50 g/kg, Vz/F, ANIT group rats; oral AE-PM 50 g/kg; plasma; n = 6
Could you please report measured Vd/F for the items listed next?
Provide the reading as a plain figure in L/kg.

Vd/F measured on Oc1cc(O)c2c(c1)O[C@H](c1ccc(O)c(O)c1)[C@@H](O)C2 [Catechin, catechin] = 442

Vd/F measured on Cc1cc(O[C@@H]2O[C@H](CO)[C@@H](O)[C@H](O)[C@H]2O)c2c(c1)C(=O)c1cc(O)cc(O)c1C2=O [E-glu, emodin-8-O-β-D-glucoside] = 78.3

Vd/F measured on O=C1c2cccc(O)c2C(=O)c2c(O)cc(CO)cc21 [Aloe-emodin, aloe-emodin] = 96.7

Vd/F measured on COc1cc(O)c2c(c1)C(=O)c1cc(C)cc(O)c1C2=O [Physcion, physcion] = 59.8

----------
# assay-protocol: Pharmacokinetics of AE-PM components and their phase II metabolites in rat plasma after single oral administration (UHPLC-MS/MS, with and without sulfatase hydrolysis)
# assay-setup: rat, plasma, po, 50 g/kg, CLz/F, ANIT group rats; oral AE-PM 50 g/kg; plasma; n = 6
Could you please report measured CL/F for the items listed next?
Provide the reading as a plain figure in mL/min/kg.

CL/F measured on O=C1c2cccc(O)c2C(=O)c2c(O)cc(CO)cc21 [Aloe-emodin, aloe-emodin] = 7.98

CL/F measured on OC[C@H]1O[C@@H](Oc2c(O)cc(O)cc2/C=C/c2ccc(O)cc2)[C@H](O)[C@@H](O)[C@@H]1O [TSG] = 0.983

CL/F measured on COc1cc(O)c2c(c1)C(=O)c1cc(C)cc(O[C@@H]3O[C@H](CO)[C@@H](O)[C@H](O)[C@H]3O)c1C2=O [P-glu, physcion-8-O-β-D-glucoside] = 47.3

CL/F measured on Cc1cc(O)c2c(c1)C(=O)c1cc(O)cc(O)c1C2=O [Emodin, emodin] = 223

CL/F measured on COc1cc(O)c2c(c1)C(=O)c1cc(C)cc(O)c1C2=O [Physcion, physcion] = 23.9

CL/F measured on Cc1cc(O[C@@H]2O[C@H](CO)[C@@H](O)[C@H](O)[C@H]2O)c2c(c1)C(=O)c1cc(O)cc(O)c1C2=O [E-glu, emodin-8-O-β-D-glucoside] = 193

CL/F measured on Oc1cc(O)c2c(c1)O[C@H](c1ccc(O)c(O)c1)[C@@H](O)C2 [Catechin, catechin] = 28.8

----------
# assay-protocol: Pharmacokinetics of AE-PM components and their phase II metabolites in rat plasma after single oral administration (UHPLC-MS/MS, with and without sulfatase hydrolysis)
# assay-setup: rat, plasma, po, 50 g/kg, Cmax, Normal group rats; oral AE-PM 50 g/kg; plasma; n = 6
Could you please report measured Cmax for the items listed next?
Provide the reading as a plain figure in ng/mL.

Cmax measured on Cc1cc(O[C@@H]2O[C@H](CO)[C@@H](O)[C@H](O)[C@H]2O)c2c(c1)C(=O)c1cc(O)cc(O)c1C2=O [E-glu, emodin-8-O-β-D-glucoside] = 821

Cmax measured on O=C1c2cccc(O)c2C(=O)c2c(O)cc(CO)cc21 [Aloe-emodin, aloe-emodin] = 1270

Cmax measured on Cc1cc(O)c2c(c1)C(=O)c1cc(O)cc(O)c1C2=O [Emodin, emodin] = 4100

Cmax measured on COc1cc(O)c2c(c1)C(=O)c1cc(C)cc(O[C@@H]3O[C@H](CO)[C@@H](O)[C@H](O)[C@H]3O)c1C2=O [P-glu, physcion-8-O-β-D-glucoside] = 148

Cmax measured on COc1cc(O)c2c(c1)C(=O)c1cc(C)cc(O)c1C2=O [Physcion, physcion] = 2140

Cmax measured on Oc1cc(O)c2c(c1)O[C@H](c1ccc(O)c(O)c1)[C@@H](O)C2 [Catechin, catechin] = 251

Cmax measured on OC[C@H]1O[C@@H](Oc2c(O)cc(O)cc2/C=C/c2ccc(O)cc2)[C@H](O)[C@@H](O)[C@@H]1O [TSG] = 15000
